biological target: Phospholipase A2 (Homo sapiens); assay type: functional;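 also: confirmatory dose-response counterscreen on phospholipase A2, testing hits that came from an ultra-high-throughput screen for ATG4B inhibitors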
Sequence (P04054 whole entry): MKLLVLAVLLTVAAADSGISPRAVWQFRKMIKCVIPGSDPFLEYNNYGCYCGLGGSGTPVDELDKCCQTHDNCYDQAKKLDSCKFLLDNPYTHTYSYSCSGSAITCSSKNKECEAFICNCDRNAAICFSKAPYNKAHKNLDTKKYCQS
Calls of active or inactive are those of the source.
Recorded Endpoint: IC50

[[record]]
compound = "CC(/C=C1\\SC(=S)N(NS(=O)(=O)c2ccccc2)C1=O)=C\\c1ccccc1"
target_of_assay = "Phospholipase A2 (Homo sapiens)"
meas_value = "8.23 µM (active)"

[[record]]
compound = "CC1CCc2sc(C(=O)N3CCC(C(N)=O)CC3)cc2C1 (centres undefined)"
target_of_assay = "Phospholipase A2 (Homo sapiens)"
meas_value = "9.91 µM (active)"

[[record]]
compound = "O=C(CN1C(=O)/C(=C/c2ccco2)SC1=S)Nc1ccc(C(=O)O)c(O)c1"
target_of_assay = "Phospholipase A2 (Homo sapiens)"
meas_value = "16.8 µM (active)"


Consider now this further compound.
Request: Request the reported IC50 associated with CCCCCCCCCCCCCCC(O)C[N+](C)(CCO)CCO (centres undefined)
Response: 7.95 µM (active)

Data origin: ChEMBL document CHEMBL1201862
